Hello, the source for this data is ChEMBL document CHEMBL3399977, in case you need it.

- Tested on: MDA-MB-231
- PROCEDURE_TEXT: Antiproliferative activity against human MDA-MB-231 cells after 48 hrs by MTT assay
- Type: functional, cell-based
- EXPERIMENTAL_SETUP: MDA-MB-231, 48 h
MEASUREMENT_TYPE: IC50 (µM)

Below: 3 compounds and their reported IC50.
1) Cc1cc2c(C(C)C)c(O)c(O)c(C=O)c2c(O)c1-c1c(C)cc2c(C(C)C)c(O)c(O)c(C=O)c2c1O | 9.21
2) O=C(NS(=O)(=O)c1ccccc1)[C@H](Cc1ccc(Br)cc1)N1C(=O)/C(=C/c2ccc(-c3ccc(Cl)cc3)cc2)SC1=S | 28.8
3) O=C(NS(=O)(=O)c1ccc([N+](=O)[O-])cc1)[C@H](Cc1ccc(Br)cc1)N1C(=O)/C(=C/c2ccc(-c3ccc([N+](=O)[O-])cc3)cc2)SC1=S | 30.4

[a] O=C(NS(=O)(=O)c1ccc([N+](=O)[O-])cc1)[C@H](Cc1ccc(Br)cc1)N1C(=O)/C(=C/c2ccc(-c3ccc(Cl)cc3)cc2)SC1=S
[b] O=C(NS(=O)(=O)c1ccccc1)[C@H](Cc1ccc(Br)cc1)N1C(=O)/C(=C/c2ccc(-c3ccc([N+](=O)[O-])cc3)cc2)SC1=S
[in] Lab note: record which item had the higher IC50, a or b . In your reply, give the label of the chosen option.
[out] b
